# key: entry, value: EC50, nM; Glucagon Receptor
study target: glucagon receptor (UniProt P47871 26-477, limits assumed)
Sequence (P47871 26-477 limits assumed): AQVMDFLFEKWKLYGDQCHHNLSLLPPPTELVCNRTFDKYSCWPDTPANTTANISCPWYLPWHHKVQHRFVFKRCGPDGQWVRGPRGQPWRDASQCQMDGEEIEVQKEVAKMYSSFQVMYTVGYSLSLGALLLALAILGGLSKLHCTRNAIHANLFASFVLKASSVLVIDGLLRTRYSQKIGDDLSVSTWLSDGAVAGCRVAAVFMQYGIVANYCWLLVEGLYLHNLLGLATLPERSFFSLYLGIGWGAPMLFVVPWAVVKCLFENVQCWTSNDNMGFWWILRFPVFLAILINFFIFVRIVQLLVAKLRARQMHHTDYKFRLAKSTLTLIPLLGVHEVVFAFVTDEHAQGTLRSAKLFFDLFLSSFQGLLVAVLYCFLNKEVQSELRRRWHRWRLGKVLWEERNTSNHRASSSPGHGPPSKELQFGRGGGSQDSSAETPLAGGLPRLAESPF
protocol details: cell-based or functional assay
Where no end group is shown, it is not given here. [ ]: non-standard residue; d: D form. The star is where a group is joined. PEG 40 kDa = PEG (40 kDa) covalently attached to Cys; Myristoyl = CCCCCCCCCCCCCC(=O)*; Aib = CC(C)(N)C(=O)O

Some solved cases for reference:
binder: YXEGTFTSDYSIYLDKQAAXEFVNWLLAGGPSSGAPPPSKC (AIB at position 20 (Example 25); listed among the acylated glucagon peptides in paragraph 284; other non-standard residues as in the sequence listing) [mt-343]
EC50, nM; Glucagon Receptor: 41.1 nM
//
binder: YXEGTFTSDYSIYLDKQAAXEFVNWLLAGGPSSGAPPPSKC (AIB at position 20 (Example 25); other non-standard residues as in the sequence listing) [mt-344]
EC50, nM; Glucagon Receptor: 159 nM
//
binder: Y[Aib]EGTFTSDK(Myristoyl)SIYLDKQAA[Aib]EFVC(PEG 40 kDa)WLLAGGPSSGAPPPS-NH2 [mt-341]
EC50, nM; Glucagon Receptor: 499 nM

Please turn your attention to the following entry.
Prompt line: Fill in: EC50, nM; Glucagon Receptor of Y[Aib]EGTFTSDYSIYLDKQAA[Aib]EFVC(PEG 40 kDa)WLLAGGPSSGAPPPSK(Myristoyl)-NH2 [mt-353] is ___
Response line: 12.5 nM
